- Assay info: Growth inhibition of HEK293T cells at 50 ug/ml after 72 hrs by MTT assay
- Assay type: cell-based, HEK-293T
- Run conditions: human, read-out: GI
Readout name: inhibition at 72 h, 50 ug/ml (%)
Just the number in %, nothing appended.

Examples from the recorded data:
{"Line notation": "CC(C)c1ccc(/C=C/C(=O)Nc2nc(-c3ccc4sc5ccccc5c4c3)cs2)cc1", "inhibition at 72 h, 50 ug/ml, %": 43.1}
{"Line notation": "O=C(/C=C/c1ccc(F)cc1)Nc1nc(-c2ccc3oc4ccccc4c3c2)cs1", "inhibition at 72 h, 50 ug/ml, %": 36.8}
{"Line notation": "Cc1ccc(/C=C/C(=O)Nc2nc(-c3ccc4sc5ccccc5c4c3)cs2)cc1", "inhibition at 72 h, 50 ug/ml, %": 48}
{"Line notation": "O=C(/C=C/c1ccc(F)cc1)Nc1nc(-c2ccc3sc4ccccc4c3c2)cs1", "inhibition at 72 h, 50 ug/ml, %": 57.2}
{"Line notation": "Cc1ccc(/C=C/C(=O)Nc2nc(-c3ccc4oc5ccccc5c4c3)cs2)cc1", "inhibition at 72 h, 50 ug/ml, %": 51.3}

Recorded inhibition at 72 h, 50 ug/ml (molecule O=C(/C=C/c1ccccc1)Nc1nc(-c2ccc3sc4ccccc4c3c2)cs1 ): 68.6

inhibition at 72 h, 50 ug/ml reported for this molecule O=C(/C=C/c1ccc(Br)cc1)Nc1nc(-c2ccc3sc4ccccc4c3c2)cs1 : 28.3

Source: ChEMBL document CHEMBL4219180
